system: Canis familiaris; assay: Minimum effective dose evaluated in mixed-breed or Beagle dogs after intravenous administration; type: functional; settings: Canis lupus familiaris, read-out: MED
Could you label it Satisfied if measured minimal effective dose is 3 mg/kg or higher, and Not satisfied otherwise?

[[record]]
compound = "CC(C)N(CCC(CCN(C(C)C)C(C)C)(C(N)=O)c1ccc(F)cc1)C(C)C"
system_name = "Canis familiaris"
category_label = "Not satisfied"

[[record]]
compound = "CC(C)N(CCC(CCN(C(C)C)C(C)C)(C(N)=O)c1c(Cl)cccc1Cl)C(C)C"
system_name = "Canis familiaris"
category_label = "Not satisfied"

[[record]]
compound = "Cc1ccccc1C(CCN(C(C)C)C(C)C)(CCN(C(C)C)C(C)C)C(N)=O"
system_name = "Canis familiaris"
category_label = "Not satisfied"

[[record]]
compound = "CC(C)N(CCC(CCCN(C)C)(C(N)=O)c1ccccc1F)C(C)C (stereo not given)"
system_name = "Canis familiaris"
category_label = "Satisfied"

[[record]]
compound = "CC(C)N(CCC(CCN(C(C)C)C(C)C)(C(N)=O)c1ccc(C(C)(C)C)cc1)C(C)C"
system_name = "Canis familiaris"
category_label = "Not satisfied"

[[record]]
compound = "CC(C)N(CCC(CCN(C)C1CCCCC1)(C(N)=O)c1ccccc1)C(C)C (stereo not given)"
system_name = "Canis familiaris"
category_label = "Not satisfied"

[[record]]
compound = "CC(C)N(CCC(CCn1cccc1)(C(N)=O)c1ccccc1)C(C)C (stereo not given)"
system_name = "Canis familiaris"
category_label = "Satisfied"

[[record]]
compound = "CC(C)N(CCC(CCN(C(C)C)C(C)C)(C(N)=O)c1ccc(Cl)cc1Cl)C(C)C"
system_name = "Canis familiaris"
category_label = "Not satisfied"

